Reported pIC50 values are given for each entry in this list.
Biological target: wild type AR in PC-3 cells (Homo sapiens)
Sequence (P10275 whole entry): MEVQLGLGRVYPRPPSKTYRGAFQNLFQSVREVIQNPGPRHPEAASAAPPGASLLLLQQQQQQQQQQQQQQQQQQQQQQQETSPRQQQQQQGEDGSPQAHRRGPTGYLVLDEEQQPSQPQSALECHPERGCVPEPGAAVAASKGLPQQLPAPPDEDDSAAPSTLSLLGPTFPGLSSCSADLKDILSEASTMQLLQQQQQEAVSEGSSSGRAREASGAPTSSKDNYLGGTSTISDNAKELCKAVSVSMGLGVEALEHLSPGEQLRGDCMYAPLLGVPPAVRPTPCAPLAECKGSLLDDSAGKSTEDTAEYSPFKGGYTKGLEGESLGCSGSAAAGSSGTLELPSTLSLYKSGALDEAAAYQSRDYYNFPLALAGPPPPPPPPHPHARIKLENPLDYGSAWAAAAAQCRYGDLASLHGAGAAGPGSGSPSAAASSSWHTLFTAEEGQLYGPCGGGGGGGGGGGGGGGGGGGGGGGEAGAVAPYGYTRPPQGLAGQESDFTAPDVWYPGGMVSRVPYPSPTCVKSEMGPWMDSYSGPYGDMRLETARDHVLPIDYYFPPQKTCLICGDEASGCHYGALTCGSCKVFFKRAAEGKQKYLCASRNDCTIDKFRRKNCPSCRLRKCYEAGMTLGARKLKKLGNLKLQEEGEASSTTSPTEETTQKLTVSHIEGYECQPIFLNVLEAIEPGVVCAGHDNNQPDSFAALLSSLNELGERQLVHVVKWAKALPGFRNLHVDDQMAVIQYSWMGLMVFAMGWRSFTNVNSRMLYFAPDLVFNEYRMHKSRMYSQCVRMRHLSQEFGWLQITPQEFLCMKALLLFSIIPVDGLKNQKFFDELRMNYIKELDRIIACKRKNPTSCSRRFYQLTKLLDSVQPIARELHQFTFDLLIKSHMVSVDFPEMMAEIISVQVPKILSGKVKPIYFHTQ
Test: Anti-prostate cancer screening, anti-androgenic bioassay (wild type AR transactivation) in PC-3 cells
Details: PC-3 cells transfected with wild type AR, 1 nM DHT, 24 h
Expect pIC50 as a plain number equal to -log10 of the molar concentration.

| Compound | pIC50 |
| --- | --- |
| CCOC1SCC(=O)N1c1c(C#N)cnn1-c1nc2c(ccc3ccccc32)s1 (centres unmarked) [Compound 12] | 6.54 |
| Cc1nc2c3cnn(-c4nc5c(ccc6ccccc65)s4)c3ncn2n1 [Compound 10] | 6.96 |
| N#Cc1cnn(-c2nc3c(ccc4ccccc43)s2)c1N [Compound 2] | 6.80 |
| Nc1nc(=S)[nH]c2c1cnn2-c1nc2c(ccc3ccccc32)s1 [Compound 5] | 6.72 |
| Nc1ncnc2c1cnn2-c1nc2c(ccc3ccccc32)s1 [Compound 3] | 6.75 |

Exam item: Item Nc1n[nH]c2c1cnn2-c1nc2c(ccc3ccccc32)s1 [Compound 4] with wild type AR in PC-3 cells (Homo sapiens) - pIC50?
Marked response: 6.75

Exam item: Item N#Cc1cnn(-c2nc3c(ccc4ccccc43)s2)c1/N=C\NN [Compound 9] with wild type AR in PC-3 cells (Homo sapiens) - pIC50?
Marked response: 6.57

Exam item: Item N=c1sc(=S)[nH]c2c1cnn2-c1nc2c(ccc3ccccc32)s1 [Compound 6] with wild type AR in PC-3 cells (Homo sapiens) - pIC50?
Marked response: 6.70

Exam item: Item N=c1c2cnn(-c3nc4c(ccc5ccccc54)s3)c2ncn1NC(=O)c1ccccc1 [Compound 11] with wild type AR in PC-3 cells (Homo sapiens) - pIC50?
Marked response: 6.74

Exam item: Item CCOC1SCC2NC(=O)c3cnn(-c4nc5c(ccc6ccccc65)s4)c3N21 (centres unmarked) [Compound 13] with wild type AR in PC-3 cells (Homo sapiens) - pIC50?
Marked response: 6.84

Exam item: Item CCO/C=N\c1c(C#N)cnn1-c1nc2c(ccc3ccccc32)s1 [Compound 8] with wild type AR in PC-3 cells (Homo sapiens) - pIC50?
Marked response: 6.55
